- Test system: SF-295 CNS
- method-notes: NCI-60 one-dose screen, 48 h
- measurement-context: 10 µM unless noted
The panel holds about 83,000 compounds, 20% with a hit somewhere; the sample as a whole holds those more often. Activity calls are given as the source filed them. How the source made its calls: active means growth percent below 10; inactive means the rest.
Labels: active, inactive

{"columns": ["input-smiles", "answer-label"],
 "data": [
  ["C=C1C(=O)O[C@H]2[C@H]1CC/C(COC(=O)/C=C\\C(=O)NCc1ccc(Cn3c(=O)sn(CCCl)c3=O)cc1)=C\\CC[C@@]1(C)O[C@@H]21", "inactive"],
  ["Clc1ccc(-c2cc(-c3ccccc3)nc(NCCNc3ccnc4cc(Cl)ccc34)n2)cc1", "inactive"],
  ["CC1(C)CC2=C3C=C[C@@H]4[C@@]5(C)CCC(=O)C(C)(C)[C@@H]5CC[C@@]4(C)[C@]3(C)CC[C@@]2(C(=O)O)C[C@H]1O", "inactive"],
  ["COc1ccc(C(=O)N2c3ccccc3Sc3ccccc32)c(C(F)(F)F)c1", "active"],
  ["O=C(CCCCCCN1CC(=O)N2[C@H](c3ccc(Br)cc3)c3[nH]c4ccccc4c3C[C@@H]2C1=O)NO", "inactive"],
  ["O=C(O)c1cn(C2CC2)c2cc(N3CCN(C(=O)Nc4nc(-c5ccc(Br)cc5)cs4)CC3)c(F)cc2c1=O", "inactive"],
  ["NS(=O)(=O)c1ccc(-c2cc(-c3nnc(SCC(=O)Nc4ccc(C(=O)/C=C/c5ccc(Cl)cc5)cc4)n3-c3ccccc3)c3ccccc3n2)cc1", "inactive"]
]}
